# Protocol Notes: Metabolic stability in pooled rat liver microsomes
# Measurement Setup: rat, pooled rat liver microsomes, pH 7.4, T1/2, rat liver microsomes; Table 5 (Example 20)
# Method: Buffer solutions were prepared as follows: • a. Buffer A: 0.1 M monobasic potassium phosphate buffer containing 1.0 mM EDTA. • b. Buffer B: 0.1 M dibasic potassium phosphate buffer containing 1.0 mM EDTA. • c. Buffer C: 0.1 M potassium phosphate buffer containing 1.0 mM EDTA was adjusted to pH 7.4 by titrating 700 mL of Buffer B with Buffer A while monitoring with a pH meter. • 2. An NADPH stock solution (6 mM) was prepared by dissolving NADPH into Buffer C. • 3. […]
Measured Parameter: half-life at 0.5 µM (min)
Reply with just the number (in min).

Input: Return half-life at 0.5 µM for the following compound: O=C(c1ccc(F)cc1)C1CCN(CCn2c(=O)[nH]c3ccccc3c2=O)CC1 [ketanserin]
Output: 16.1

Cited source for all entries: patent US11384062B2
